Where do these numbers come from? They come from PubChem BioAssay AID1259407.

System: CCRIS mutagenicity, Ames/micronucleus/aberration tests
Test: CCRIS mutagenicity studies
Settings: Test System: CHINESE HAMSTER V-79; Strain/Indicator: V-79/6-THIOGUANINE; Metabolic Activation: NONE; Method: FLASK ASSAY
The source made the active and inactive calls. The rule behind the calls is not given here.
Classes used: active, inactive

molecule="COC(COC(N)=O)C1=C(N2CC2)C(=O)C(C)=C(N2CC2)C1=O (centres undefined)" classlabel=active
molecule=CCCN(N=O)C(N)=O classlabel=active
molecule=OCCN1CC1 classlabel=active
molecule=S=P(N1CC1)(N1CC1)N1CC1 classlabel=inactive

----------
System: CCRIS mutagenicity, Ames/micronucleus/aberration tests
Experiment: CCRIS mutagenicity studies
Details: Test System: AMES SALMONELLA TYPHIMURIUM; Strain/Indicator: TA102; Metabolic Activation: RAT LIVER S-9, AROCLOR 1254; Method: PREINCUBATION
Calls of active or inactive are those of the source. How the calls were made is not given here.
measuredParameter: mutagenic call

molecularstring=CC(C)(C)NC(=O)[C@H]1CC[C@H]2[C@@H]3CC=C4C=C(C(=O)O)CC[C@]4(C)[C@H]3CC[C@]12C valueobserved="inactive; negative"
molecularstring=C/C(C=O)=C\c1ccccc1 valueobserved="inactive; negative"
molecularstring=O=C(OOC(=O)c1ccccc1)c1ccccc1 valueobserved="inactive; negative"

----------
System: CCRIS mutagenicity, Ames/micronucleus/aberration tests
Experiment: CCRIS mutagenicity studies
Conditions: End Point: IN VITRO MICRONUCLEUS; Test System: CHL/IU CELLS; Metabolic Activation: NONE
Active and inactive are the calls of the source. How the calls were made is not given here.
Classes used: t for active, f for inactive

compound=[CH3][Hg][Cl] targetdesc="CCRIS mutagenicity, Ames/micronucleus/aberration tests" classlabel=t
compound="CCC(Cl)C(=O)O (centres undefined)" targetdesc="CCRIS mutagenicity, Ames/micronucleus/aberration tests" classlabel=t
compound=Nc1ccc([N+](=O)[O-])cc1Cl targetdesc="CCRIS mutagenicity, Ames/micronucleus/aberration tests" classlabel=f
compound=Nc1ccccc1[N+](=O)[O-] targetdesc="CCRIS mutagenicity, Ames/micronucleus/aberration tests" classlabel=f

----------
Test system: CCRIS mutagenicity, Ames/micronucleus/aberration tests
Experiment: CCRIS mutagenicity studies
Conditions: Test System: AMES SALMONELLA TYPHIMURIUM; Strain/Indicator: TA1535; Metabolic Activation: RAT, LIVER, S-9, AROCLOR 1254; Method: STANDARD PLATE
Active and inactive are the calls of the source. No rule for the calls is given here.
Classes used: yes (1) = active, no (0) = inactive

compound=Nc1ncc([N+](=O)[O-])s1 classlabel="no (0)"
compound=Cc1ccc(OS(=O)(=O)c2cccc3cccnc23)c([N+](=O)[O-])c1 classlabel="no (0)"
compound=Cc1cc(C)c(S(=O)(=O)O)cc1N=Nc1cc(S(=O)(=O)O)c2ccccc2c1O classlabel="no (0)"
compound="O=P(OCC(Br)CBr)(OCC(Br)CBr)OCC(Br)CBr (stereo not given)" classlabel="yes (1)"
compound=CC(=O)C(Cl)Cl classlabel="yes (1)"
compound=O=C([O-])[C@H](O)[C@@H](O)[C@H](O)[C@H](O)CO.O=C([O-])[C@H](O)[C@@H](O)[C@H](O)[C@H](O)CO.[Mn+2] classlabel="no (0)"
compound=Cc1cc(N)c([N+](=O)[O-])c(C)c1N classlabel="no (0)"
compound=O=C(CCCN1CCN(c2ccccn2)CC1)c1ccc(F)cc1 classlabel="no (0)"
compound=CC(C)(Cl)Cl classlabel="no (0)"
compound=c1ccc2ncccc2c1 classlabel="no (0)"
compound=C=C(C)C(=O)OCCOC(=O)C(=C)C classlabel="no (0)"
compound=CCOC(=O)NNc1nncc2ccccc12 classlabel="no (0)"
compound="CCOc1ccccc1OCC1CNCCO1 (stereo not given)" classlabel="no (0)"
compound=CN(C)C(=O)Oc1ccc[n+](C)c1 classlabel="no (0)"
compound=O=c1oc2ccc([N+](=O)[O-])cc2c2ccccc12 classlabel="yes (1)"
compound=CN(CCO)C(=O)Nc1ccccc1 classlabel="no (0)"
compound=Nc1ccc(N=Nc2ccc3c(c2)C(=O)/C(=N/Nc2ccc(Nc4ccc(N/N=C5/C(=O)c6cc(N=Nc7ccc(N)cc7N)ccc6C=C5S(=O)(=O)O)cc4S(=O)(=O)O)cc2)C(S(=O)(=O)O)=C3)c(N)c1 classlabel="no (0)"
compound=Oc1ccc2c(O)c3ccccc3cc2c1O classlabel="no (0)"
compound=O=C1c2ccccc2C(=O)c2c(O)c(O)cc(O)c21 classlabel="no (0)"
compound=C=CC(=O)OC(C)(C)C classlabel="no (0)"
compound=CCC1(c2ccccc2)C(=O)NC(=O)NC1=O classlabel="no (0)"
compound=CCCCC/C=C\C/C=C\CCCCCCCC(=O)O classlabel="no (0)"
compound="OCC(Br)CBr (stereo not given)" classlabel="yes (1)"
compound=C=CC(=O)OCCOCCOC(=O)C=C classlabel="no (0)"
compound=O=C(OCc1ccc(Cl)cc1)c1cccc2cccnc12 classlabel="no (0)"
compound=CC(C)NNC(=O)c1ccncc1 classlabel="no (0)"
compound=CC(=O)Nc1ccc(C(=O)CCl)cc1 classlabel="no (0)"
compound=COc1cc(CCC(C)=O)ccc1O classlabel="no (0)"
compound="CC12CCC(=O)NC1=CCC1C2CCC2(C)C(OC(=O)CCCc3ccc(N(CCCl)CCCl)cc3)CCC12 (stereo not given)" classlabel="yes (1)"
compound=C=CCc1ccc(O)cc1 classlabel="no (0)"
compound=Clc1ccc2c(c1)C(c1ccccc1)=NCc1nncn1-2 classlabel="no (0)"
compound=O=C(O)c1cc(I)cc2cccnc12 classlabel="no (0)"
compound=CCC(=O)N(c1ccc(Cl)c(Cl)c1)[C@@H]1CCC[C@H]1N(C)C classlabel="no (0)"
compound=Clc1cc(Cl)c(Cl)cc1Cl classlabel="no (0)"
compound=CC(C)CCON=O classlabel="yes (1)"
compound=COc1ccc(N)c(OC)c1 classlabel="no (0)"
compound=CN(C)C(=O)c1nc2n(n1)-c1ccc(Cl)cc1C(c1ccccc1Cl)=NC2 classlabel="no (0)"
compound=N[C@@H]1C[C@H]1c1ccccc1 classlabel="no (0)"
compound=Cc1cc(O)ccc1Cl classlabel="no (0)"
compound=O=C(O)c1ccc(N=Nc2ccc(O)c(C(=O)O)c2)cc1 classlabel="no (0)"
compound=COC(=O)Nc1nc2ccc(OS(=O)(=O)c3ccc(F)cc3)cc2[nH]1 classlabel="no (0)"
compound=O=C(O)CC[C@H](NC(=O)COc1cc(Cl)c(Cl)cc1Cl)C(=O)O classlabel="no (0)"
compound=O=P([O-])([O-])OC(CCO)CCO.O=P([O-])([O-])OCC(O)CO.[Mn+2].[Mn+2] classlabel="no (0)"
compound=CC(C)c1c(C(=O)Nc2ccccc2)c(-c2ccccc2)c(-c2ccc(F)cc2)n1CC[C@@H](O)C[C@@H](O)CC(=O)O classlabel="no (0)"
compound=Nc1cccc([N+](=O)[O-])c1O classlabel="no (0)"
compound="CCCCC(CC)COC(=O)c1ccc(N(C)C)c([N+](=O)[O-])c1 (stereo not given)" classlabel="no (0)"
compound="COc1cc([N+](=O)[O-])ccc1N=NC(C(C)=O)C(=O)Nc1ccccc1OC (stereo not given)" classlabel="no (0)"
compound=C[C@]12CC[C@H](OC(=O)Cc3ccc(N(CCCl)CCCl)cc3)C[C@@H]1CC[C@@H]1[C@@H]2CC[C@]2(C)NC(=O)CC[C@@H]12 classlabel="yes (1)"
compound=C1OCOCO1 classlabel="no (0)"
compound=Cc1cc(N(CCO)CCO)ccc1N=Nc1ccc(N)cc1 classlabel="no (0)"

----------
Tested on: CCRIS mutagenicity, Ames/micronucleus/aberration tests
Experiment: CCRIS mutagenicity studies
Conditions: Test System: AMES SALMONELLA TYPHIMURIUM; Strain/Indicator: TA1535; Metabolic Activation: RAT, LIVER, S-9, AROCLOR 1254 (10%); Method: PREINCUBATION
The source made the active and inactive calls. How the calls were made is not given here.
Classes used: yes (active), no (inactive)

molecule=CN(C)CCN(C)C classlabel=no
molecule=CCCCCN(CCCCC)CCCCC classlabel=no
molecule=O=C(O)CS classlabel=no
molecule="CCC(C)Nc1ccc(NC(C)CC)cc1 (centres undefined)" classlabel=no
molecule=COc1cc(-c2ccc(N/N=C3\C=C(S(=O)(=O)O)c4ccccc4C3=O)c(OC)c2)ccc1N/N=C1/C=C(S(=O)(=O)O)c2ccccc2C1=O classlabel=no
molecule=C=CCOC(=O)c1ccccc1N classlabel=no
molecule="ClCC(Br)CBr (centres undefined)" classlabel=yes
molecule=CN(C)C classlabel=no
molecule=Nc1cc([N+](=O)[O-])cc(Cl)c1O classlabel=no

----------
System: CCRIS mutagenicity, Ames/micronucleus/aberration tests
Assay: CCRIS mutagenicity studies
Conditions: Test System: CHINESE HAMSTER V-79; Strain/Indicator: V-79 (HGPRT)/6-THIOGUANINE; Metabolic Activation: NONE
Active and inactive are the calls of the source. How the calls were made is not given here.
Classes used: TRUE for active, FALSE for inactive

molecularstring=O=C(O)/C=C/C(=O)CC(=O)CC(=O)O targetdesc="CCRIS mutagenicity, Ames/micronucleus/aberration tests" classlabel=TRUE
molecularstring=O=C1C=CC(=O)C(c2ccccc2)=C1 targetdesc="CCRIS mutagenicity, Ames/micronucleus/aberration tests" classlabel=FALSE
molecularstring=CC(=O)CCCCn1c(=O)c2c(ncn2C)n(C)c1=O targetdesc="CCRIS mutagenicity, Ames/micronucleus/aberration tests" classlabel=FALSE
molecularstring=CC(C)c1c(C(=O)Nc2ccccc2)c(-c2ccccc2)c(-c2ccc(F)cc2)n1CC[C@@H](O)C[C@@H](O)CC(=O)O targetdesc="CCRIS mutagenicity, Ames/micronucleus/aberration tests" classlabel=FALSE
molecularstring=c1ccccc1 targetdesc="CCRIS mutagenicity, Ames/micronucleus/aberration tests" classlabel=FALSE
